Source of measurements: patent US7977387B2

# Test system: TNF-α
# TEST DESCRIPTION: Inhibition of TNF-α secretion in LPS stimulated peripheral blood mononuclear cells
# Assay type: cell-based
# COND: PBMC; LPS stimulated human peripheral blood mononuclear cells, 18 hours, ELISA; read-out: The median inhibition concentration (IC50, nM) of TNF-α
Below is a list of entries, each paired with its recorded log10(IC50) value.
Scale: decimal log of IC50, IC50 in nM.

>  <COMPOUND>
Cc1ccc(C(=O)NCCCO)cc1C(=O)c1ccc(Nc2ccc(F)cc2F)cc1Cl

>  <log10(IC50)>
-0.70

$$$$
>  <COMPOUND>
Cc1ccc(C(=O)NCCCO)cc1C(=O)c1ccc(Nc2ccccc2N)cc1Cl

>  <log10(IC50)>
0.30

$$$$
>  <COMPOUND>
COc1ccc(C(=O)NC(C)(C)CO)cc1C(=O)c1ccc(Nc2c(F)cccc2F)cc1Cl

>  <log10(IC50)>
0.20

$$$$

Name the reported log10(IC50) value associated with the compound Cc1ccc(C(=O)NCC(O)CO)cc1C(=O)c1ccc(Nc2ccc(F)cc2F)cc1Cl (stereo not shown) -0.22

Name the reported log10(IC50) value associated with the compound COc1ccc(CO)cc1C(=O)c1ccc(Nc2ccc(F)cc2F)cc1Cl 0.40

---

# System: TNF-α
# TEST DESCRIPTION: Inhibition of TNF-α secretion in LPS stimulated peripheral blood mononuclear cells
# Assay type: cell-based
# COND: PBMC; LPS stimulated human peripheral blood mononuclear cells, 18 hours, ELISA; read-out: The median inhibition concentration (IC50, nM) of TNF-α
Kindly apply the following: yes if IC50 is less than 1 nM, no in every other case.

>  <COMPOUND>
O=C(c1cc(OCCCO)ccc1F)c1ccc(Nc2ccc(F)cc2F)cc1Cl

>  <LABEL CLASS>
no

$$$$
>  <COMPOUND>
COc1ccc(C(=O)NCC(N)=O)cc1C(=O)c1ccc(Nc2ccc(F)cc2F)cc1Cl

>  <LABEL CLASS>
yes

$$$$
>  <COMPOUND>
Cc1ccc(NC(=O)c2ccccc2O)cc1C(=O)c1ccc(Nc2ccc(F)cc2F)cc1Cl

>  <LABEL CLASS>
no

$$$$
>  <COMPOUND>
Cc1ccc(NC(=O)NCCc2ccccc2)cc1C(=O)c1ccc(Nc2ccc(F)cc2F)cc1Cl

>  <LABEL CLASS>
no

$$$$
>  <COMPOUND>
COc1ccc(COC(C)=O)cc1C(=O)c1ccc(Nc2ccc(F)cc2F)cc1Cl

>  <LABEL CLASS>
no

$$$$

Does CCC(CO)NC(=O)c1ccc(C)c(C(=O)c2ccc(Nc3ccc(F)cc3F)cc2Cl)c1 (centres unmarked) have IC50 strictly under 1 nM? no

Does C=CCOC(=O)Nc1ccc(C)c(C(=O)c2ccc(Nc3ccc(F)cc3F)cc2Cl)c1 have IC50 strictly under 1 nM? yes

Does CCOC(=O)Nc1ccc(C)c(C(=O)c2ccc(Nc3ccc(F)cc3F)cc2Cl)c1 have IC50 strictly under 1 nM? yes

---

# Tested on: TNF-α
# TEST DESCRIPTION: Inhibition of TNF-α secretion in LPS stimulated peripheral blood mononuclear cells
# Type: cell-based
# COND: PBMC; LPS stimulated human peripheral blood mononuclear cells, 18 hours, ELISA; read-out: The median inhibition concentration (IC50, nM) of TNF-α
ENDPOINT NAME: IC50 (nM)
API: value field is a number in nM; no unit string.

Below are worked cases with known answers.
>  <MOLECULE>
CCOC(=O)CNC(=O)Nc1ccc(C)c(C(=O)c2ccc(Nc3ccc(F)cc3F)cc2Cl)c1 [Compound 261]

>  <RECORDED VALUE>
1

$$$$
>  <MOLECULE>
CCNC(=O)Nc1ccc(C)c(C(=O)c2ccc(Nc3ccc(F)cc3F)cc2Cl)c1 [Compound 269]

>  <RECORDED VALUE>
0.6

$$$$
>  <MOLECULE>
Cc1ccc(C(=O)N[C@H]2CC[C@H](O)CC2)cc1C(=O)c1ccc(Nc2ccc(Cl)cc2F)cc1Cl [Compound 136]

>  <RECORDED VALUE>
2

$$$$
>  <MOLECULE>
Cc1cc(Br)ccc1Nc1ccc(C(=O)c2cc(C(=O)NCCO)ccc2C)c(Cl)c1 [Compound 114]

>  <RECORDED VALUE>
0.4

$$$$
>  <MOLECULE>
Cc1ccc(NC(=O)CCc2ccco2)cc1C(=O)c1ccc(Nc2ccc(F)cc2F)cc1Cl [Compound 246]

>  <RECORDED VALUE>
3.2

$$$$

Missing value: IC50, TNF-α, entry CCCNC(=O)Nc1ccc(C)c(C(=O)c2ccc(Nc3ccc(F)cc3F)cc2Cl)c1 [Compound 264] . Fill in? 0.3

Missing value: IC50, TNF-α, entry COc1ccc(C(=O)NCCF)cc1C(=O)c1ccc(Nc2ccc(F)cc2)cc1Cl [Compound 197] . Fill in? 1.8

Missing value: IC50, TNF-α, entry Cc1cc(F)ccc1Nc1ccc(C(=O)c2cc(C(=O)NCC3CCCO3)ccc2C)c(Cl)c1 (centres unmarked) [Compound 104] . Fill in? 1.3

---

# Tested on: IL-1β
# TEST DESCRIPTION: Inhibition of IL-1β secretion in LPS stimulated peripheral blood mononuclear cells
# Type: cell-based
# COND: PBMC; LPS stimulated human peripheral blood mononuclear cells, 18 hours, ELISA; read-out: The median inhibition concentration (IC50, nM) of IL-1β
Below is a list of entries, each paired with its recorded IC50 value.
API: value field is a number in nM; no unit string.

>  <MOLECULE>
Cc1ccc(C(=O)N[C@H]2CC[C@H](O)CC2)cc1C(=O)c1ccc(Nc2ccc(Cl)cc2F)cc1Cl

>  <MEASURED TARGET>
IL-1β

>  <RECORDED VALUE>
4

$$$$
>  <MOLECULE>
C=CCNC(=O)c1ccc(C)c(C(=O)c2ccc(Nc3ccc(F)cc3F)cc2Cl)c1

>  <MEASURED TARGET>
IL-1β

>  <RECORDED VALUE>
3.2

$$$$
>  <MOLECULE>
Cc1ccc(NC(=O)OCc2ccccc2)cc1C(=O)c1ccc(Nc2ccc(F)cc2F)cc1Cl

>  <MEASURED TARGET>
IL-1β

>  <RECORDED VALUE>
2.5

$$$$
>  <MOLECULE>
Cc1ccc(NC(=O)CC2NC(=O)NC2=O)cc1C(=O)c1ccc(Nc2ccc(F)cc2F)cc1Cl (stereo not drawn)

>  <MEASURED TARGET>
IL-1β

>  <RECORDED VALUE>
1

$$$$
>  <MOLECULE>
Cc1ccc(C(=O)NCCO)cc1C(=O)c1ccc(Nc2ccccc2N)cc1Cl

>  <MEASURED TARGET>
IL-1β

>  <RECORDED VALUE>
4

$$$$

Name the reported IC50 value associated with the molecule CCOC(=O)CNC(=O)c1ccc(C)c(C(=O)c2ccc(Nc3ccc(F)cc3F)cc2Cl)c1 0.6

Name the reported IC50 value associated with the molecule Cc1ccc(C(=O)NCCO)cc1C(=O)c1ccc(Nc2cccc(F)c2)cc1Cl 4

Name the reported IC50 value associated with the molecule COc1ccc(C(=O)NCCO)cc1C(=O)c1ccc(Nc2ccc(F)cc2F)cc1Cl 1.4

Name the reported IC50 value associated with the molecule COc1ccc(C(=O)NCCF)cc1C(=O)c1ccc(Nc2ccc(F)cc2)cc1Cl 3.2

---

# System: IL-1β
# TEST DESCRIPTION: Inhibition of IL-1β secretion in LPS stimulated peripheral blood mononuclear cells
# Format: cell-based
# COND: PBMC; LPS stimulated human peripheral blood mononuclear cells, 18 hours, ELISA; read-out: The median inhibition concentration (IC50, nM) of IL-1β
ENDPOINT NAME: log10 IC50 (log10 of the value in nM)
Scale: decimal log of IC50, IC50 in nM.

>  <COMPOUND>
CCOC(=O)CNC(=O)CNC(=O)c1ccc(C)c(C(=O)c2ccc(Nc3ccc(F)cc3F)cc2Cl)c1

>  <log10 IC50>
-0.40

$$$$

Name the reported log10 IC50 value associated with the compound COc1ccc(C(=O)NC(C)(C)CO)cc1C(=O)c1ccc(Nc2c(F)cccc2F)cc1Cl 0.80

Name the reported log10 IC50 value associated with the compound COc1ccc(C(=O)NCC(F)F)cc1C(=O)c1ccc(Nc2ccc(F)cc2F)cc1Cl -0.05

---

# Test system: IL-1β
# TEST DESCRIPTION: Inhibition of IL-1β secretion in LPS stimulated peripheral blood mononuclear cells
# Type: cell-based
# COND: PBMC; LPS stimulated human peripheral blood mononuclear cells, 18 hours, ELISA; read-out: The median inhibition concentration (IC50, nM) of IL-1β
Below is a list of entries, each paired with its recorded IC50 value.
Answer with the number, then the unit.

Name the reported IC50 value associated with the compound C=CCNC(=O)Nc1ccc(C)c(C(=O)c2ccc(Nc3ccc(F)cc3F)cc2Cl)c1 [Compound 267] 0.4 nM

Name the reported IC50 value associated with the compound Cc1ccc(C(=O)NCCO)cc1C(=O)c1ccc(Nc2ccc(Br)cc2N)cc1Cl [Compound 113] 4 nM

Name the reported IC50 value associated with the compound CCNC(=O)c1ccc(C)c(C(=O)c2ccc(Nc3ccccc3N)cc2Cl)c1 [Compound 117] 4 nM

Name the reported IC50 value associated with the compound Cc1cc(F)ccc1Nc1ccc(C(=O)c2cc(C(=O)NCCO)ccc2C)c(Cl)c1 [Compound 119] 1.3 nM
